Target: T1, human parathyroid hormone receptor 1, wild-type (hPTHR-1) (human, UniProt Q03431 27-593)
T1 sequence (looked up): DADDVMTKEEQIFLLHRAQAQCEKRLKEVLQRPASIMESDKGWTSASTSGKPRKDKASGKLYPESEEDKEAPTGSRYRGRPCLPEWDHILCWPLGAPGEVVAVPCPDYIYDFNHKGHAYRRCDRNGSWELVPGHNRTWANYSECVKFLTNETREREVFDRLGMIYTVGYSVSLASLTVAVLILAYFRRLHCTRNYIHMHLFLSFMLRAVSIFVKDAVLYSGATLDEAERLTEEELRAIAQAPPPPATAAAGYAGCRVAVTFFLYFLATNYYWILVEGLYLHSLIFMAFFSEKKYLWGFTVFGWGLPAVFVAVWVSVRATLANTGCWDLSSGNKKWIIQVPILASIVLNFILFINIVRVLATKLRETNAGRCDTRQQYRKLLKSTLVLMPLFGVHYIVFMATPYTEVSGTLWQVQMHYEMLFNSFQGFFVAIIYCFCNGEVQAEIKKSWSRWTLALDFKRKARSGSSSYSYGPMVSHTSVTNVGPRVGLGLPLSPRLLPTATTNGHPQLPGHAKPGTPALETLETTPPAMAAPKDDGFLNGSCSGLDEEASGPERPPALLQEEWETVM
Test: cell-based or functional assay
Non-standard residues stand in square brackets, D forms with d. No end group written: not given here. β3hW = N[C@H](CC(=O)O)Cc1c[nH]c2ccccc12; β3hE = N[C@@H](CCC(=O)O)CC(=O)O; β3hF = N[C@H](CC(=O)O)Cc1ccccc1; β3hK = NCCCC[C@H](N)CC(=O)O; β3hM = CSCC[C@H](N)CC(=O)O; β3hD = NC(CC(=O)O)CC(=O)O
Listing of recorded cAMP Max by entry.

Look over these answered cases.
response.value for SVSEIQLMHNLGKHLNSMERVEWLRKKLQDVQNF-NH2 (not fully specified (residue 32); printed as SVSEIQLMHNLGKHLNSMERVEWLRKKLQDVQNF-NH2; also: three β3 residues, positions not given here in text, also called α/β-peptide B3) [B3] (field: cAMP Max) = 1.08 relative to PTH(1-34)

According to the records, this binder SVSEIQLMHNLGK[β3hW]LNS[β3hM]ERV[β3hE]WLR[β3hK]KLQ[β3hD]VHN[β3hF]-NH2 (also called α/β-peptide D6) [D6] displays cAMP Max of 0.87 relative to PTH(1-34)

Entry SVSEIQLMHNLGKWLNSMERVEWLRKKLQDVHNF-NH2 (not fully specified (residue 14); printed as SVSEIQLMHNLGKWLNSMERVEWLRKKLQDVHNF-NH2; also: seven β3 residues, positions not given here in text, also called α/β-peptide D7) [D7] ; cAMP Max = 0.85 relative to PTH(1-34)

API: the following record is the query input.
The binder identified as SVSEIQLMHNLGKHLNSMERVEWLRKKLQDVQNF-NH2 (not fully specified (residues 20, 24, 28, 32); printed as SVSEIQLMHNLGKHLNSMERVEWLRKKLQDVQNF-NH2; also: five β3 residues, positions not given here in text, also called α/β-peptide B5) [B5] registered its cAMP Max at 0.98 relative to PTH(1-34)
